Items are presented alongside their recorded inhibition at 0.1 µM.
tested_on: dopamine transporter site (Cavia porcellus, UniProt H0WCX4)
Construct: tissue NovaScreen (performed the assay); host or cells: guinea pig striatal membranes
Sequence (H0WCX4 1-619): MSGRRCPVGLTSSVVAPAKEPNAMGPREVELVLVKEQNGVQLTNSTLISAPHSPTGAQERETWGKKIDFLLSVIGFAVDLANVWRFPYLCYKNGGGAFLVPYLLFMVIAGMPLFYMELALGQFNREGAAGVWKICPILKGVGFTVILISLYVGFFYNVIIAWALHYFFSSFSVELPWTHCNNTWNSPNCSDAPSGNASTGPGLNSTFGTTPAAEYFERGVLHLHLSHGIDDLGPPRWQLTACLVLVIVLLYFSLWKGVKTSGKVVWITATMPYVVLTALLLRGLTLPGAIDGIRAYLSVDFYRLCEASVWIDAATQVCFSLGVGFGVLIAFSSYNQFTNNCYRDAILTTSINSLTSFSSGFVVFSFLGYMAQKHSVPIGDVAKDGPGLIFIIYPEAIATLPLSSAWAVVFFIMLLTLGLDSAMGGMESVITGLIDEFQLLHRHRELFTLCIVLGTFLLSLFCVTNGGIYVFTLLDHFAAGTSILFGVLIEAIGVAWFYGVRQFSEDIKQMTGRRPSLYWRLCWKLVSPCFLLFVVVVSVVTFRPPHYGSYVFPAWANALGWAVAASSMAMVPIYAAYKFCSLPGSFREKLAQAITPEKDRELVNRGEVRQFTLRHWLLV
assay_overview: Dopamine reuptake inhibition assay ([3H]WIN 35428 binding, guinea pig striatal membranes)
setup_conditions: @ 100 nM (top number); Table I; read-out: DA Uptake mean % inhibition
measured_attribute: inhibition at 0.1 µM (%)

[[record]]
compound = "Cc1ccc(F)cc1C(CCN)c1cc(F)ccc1C"
observed = 0

[[record]]
compound = "CNCCC(Oc1cccc(F)c1)c1cccc(F)c1 (centres unmarked)"
observed = 0

[[record]]
compound = "CCNCCC(c1cccc(F)c1)c1cccc(F)c1"
observed = 1.6

[[record]]
compound = "CNC[C@H](C)C(c1cccc(F)c1)c1cccc(F)c1"
observed = 4.4

[[record]]
compound = "Cc1ccccc1OC(CCN)c1cccc(F)c1 (centres unmarked)"
observed = 0

[[record]]
compound = "N[C@H]1CCCC1C(c1cccc(F)c1)c1cccc(F)c1 (some centres unmarked)"
observed = 64.3

[[record]]
compound = "COc1ccccc1OC(CCN)c1cccc(F)c1 (centres unmarked)"
observed = 1.8

[[record]]
compound = "NCCC1c2ccccc2CCc2ccc(F)cc21 (centres unmarked)"
observed = 0


###

tested_on: serotonin transporter site (Rattus norvegicus)
Construct: tissue NovaScreen (performed the assay); host or cells: rat forebrain membranes
Sequence (P31652 whole entry): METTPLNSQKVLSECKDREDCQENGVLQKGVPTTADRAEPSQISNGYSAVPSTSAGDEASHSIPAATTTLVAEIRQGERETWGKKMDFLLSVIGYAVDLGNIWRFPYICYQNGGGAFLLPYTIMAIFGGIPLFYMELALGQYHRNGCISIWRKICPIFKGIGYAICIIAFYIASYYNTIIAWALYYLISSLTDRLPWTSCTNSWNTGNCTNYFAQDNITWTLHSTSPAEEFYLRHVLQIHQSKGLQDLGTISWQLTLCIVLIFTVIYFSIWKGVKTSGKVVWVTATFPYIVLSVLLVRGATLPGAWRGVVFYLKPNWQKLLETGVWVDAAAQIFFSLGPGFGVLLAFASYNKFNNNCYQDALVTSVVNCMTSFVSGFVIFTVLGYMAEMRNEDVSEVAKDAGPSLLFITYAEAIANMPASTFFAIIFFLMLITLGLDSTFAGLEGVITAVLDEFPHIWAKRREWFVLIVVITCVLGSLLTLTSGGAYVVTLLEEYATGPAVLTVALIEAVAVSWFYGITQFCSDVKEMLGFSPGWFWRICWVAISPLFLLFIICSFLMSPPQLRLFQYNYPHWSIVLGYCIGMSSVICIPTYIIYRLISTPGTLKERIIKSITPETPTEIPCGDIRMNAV
assay_overview: Serotonin reuptake inhibition assay ([3H]citalopram binding, rat forebrain membranes)
setup_conditions: Table I; read-out: 5-HT Uptake Ki
pKi: −log10 of the molar value. Counter-ions that a name gives are not always drawn.
measured_attribute: pKi

[[record]]
compound = "NCCC(c1cccc(F)c1)c1cccc(F)c1"
tested_on = "serotonin transporter site (Rattus norvegicus)"
observed = 6.59

[[record]]
compound = "Cc1ccccc1C(CCN)c1ccccc1C"
tested_on = "serotonin transporter site (Rattus norvegicus)"
observed = 6.90

[[record]]
compound = "N[C@@H]1CCCC1C(c1cccc(F)c1)c1cccc(F)c1 (stereo partly shown)"
tested_on = "serotonin transporter site (Rattus norvegicus)"
observed = 6.60

[[record]]
compound = "CNCCC(c1cccc(F)c1)c1cccc(F)c1 [Compound 60, hydrochloride]"
tested_on = "serotonin transporter site (Rattus norvegicus)"
observed = 7.17

[[record]]
compound = "C[C@@H](CN)C(c1cccc(F)c1)c1cccc(F)c1"
tested_on = "serotonin transporter site (Rattus norvegicus)"
observed = 5.92

[[record]]
compound = "NCCC1c2ccccc2CCc2ccccc21 [Compound 156, hydrochloride]"
tested_on = "serotonin transporter site (Rattus norvegicus)"
observed = 5.92

[[record]]
compound = "NCC[C@@H](Oc1cccc(F)c1)c1ccccc1"
tested_on = "serotonin transporter site (Rattus norvegicus)"
observed = 5.62

[[record]]
compound = "C[C@H](N)CC(c1cccc(F)c1)c1cccc(F)c1"
tested_on = "serotonin transporter site (Rattus norvegicus)"
observed = 7.35

[[record]]
compound = "NCC[C@@H](Oc1cccc(F)c1)c1cccc(F)c1"
tested_on = "serotonin transporter site (Rattus norvegicus)"
observed = 6.87

[[record]]
compound = "NCC[C@H](Oc1cccc(F)c1)c1cccc(F)c1"
tested_on = "serotonin transporter site (Rattus norvegicus)"
observed = 7.85


###

tested_on: serotonin transporter site (Rattus norvegicus)
Construct: tissue NovaScreen (performed the assay); host or cells: rat forebrain membranes
assay_overview: Serotonin reuptake inhibition assay ([3H]citalopram binding, rat forebrain membranes)
setup_conditions: @ 10.0 μM (bottom number); Table I; read-out: 5-HT Uptake mean % inhibition
The entries below are paired with their reported inhibition at 10 µM.
measured_attribute: inhibition at 10 µM (%)

[[record]]
molecule = "COc1ccccc1OC(CCN)c1cccc(F)c1 (stereo not shown) [Compound 121]"
measured_attribute = "inhibition at 10 µM"
observed = 84.3

[[record]]
molecule = "Cc1ccccc1OC(CCN)c1cccc(F)c1 (stereo not shown) [Compound 181]"
measured_attribute = "inhibition at 10 µM"
observed = 74.2

[[record]]
molecule = "CC(CN)C(c1cccc(Cl)c1)c1cccc(Cl)c1 (stereo not shown) [Compound 46]"
measured_attribute = "inhibition at 10 µM"
observed = 75.4

[[record]]
molecule = "CNC[C@H](C)C(c1cccc(F)c1)c1cccc(F)c1 [Compound 66]"
measured_attribute = "inhibition at 10 µM"
observed = 67.5

[[record]]
molecule = "NCCC(Oc1cccc(F)c1)c1cccc(F)c1 (stereo not shown) [Compound 119]"
measured_attribute = "inhibition at 10 µM"
observed = 3.1

[[record]]
molecule = "CNCCC(Oc1cccc(F)c1)c1cccc(F)c1 (stereo not shown) [Compound 145]"
measured_attribute = "inhibition at 10 µM"
observed = 81.1

[[record]]
molecule = "Cc1ccc(F)cc1C(CCN)c1cc(F)ccc1C [Compound 58]"
measured_attribute = "inhibition at 10 µM"
observed = 95.2

[[record]]
molecule = "CCNCCC(c1cccc(F)c1)c1cccc(F)c1 [Compound 59]"
measured_attribute = "inhibition at 10 µM"
observed = 85.7

[[record]]
molecule = "NCCC1c2ccccc2CCc2ccc(F)cc21 (stereo not shown) [Compound 197]"
measured_attribute = "inhibition at 10 µM"
observed = 58.1

[[record]]
molecule = "N[C@H]1CCCC1C(c1cccc(F)c1)c1cccc(F)c1 (stereo partly shown) [Compound 63]"
measured_attribute = "inhibition at 10 µM"
observed = 84.6


###

tested_on: dopamine transporter site (Cavia porcellus, UniProt H0WCX4)
Construct: tissue NovaScreen (performed the assay); host or cells: guinea pig striatal membranes
assay_overview: Dopamine reuptake inhibition assay ([3H]WIN 35428 binding, guinea pig striatal membranes)
setup_conditions: Table I; read-out: DA Uptake Ki
pKi: −log10 of the molar value. Counter-ions that a name gives are not always drawn.
Binary classification by pKi, with 5 as an inclusive lower bound for criterion met; all other cases are criterion not met.

[[record]]
compound = "NCC[C@@H](Oc1cccc(F)c1)c1cccc(F)c1"
group_label = "criterion met"

[[record]]
compound = "NCC[C@H](Oc1cccc(F)c1)c1ccccc1"
group_label = "criterion met"

[[record]]
compound = "NCCC(Oc1ccccc1)c1cccc(F)c1 (centres unmarked)"
group_label = "criterion met"

[[record]]
compound = "Cc1ccccc1C(CCN)c1ccccc1C"
group_label = "criterion not met"

[[record]]
compound = "CNCCC(c1cccc(F)c1)c1cccc(F)c1 [Compound 60, hydrochloride]"
group_label = "criterion met"


###

tested_on: NMDA receptor
Construct: rat cortex membranes
assay_overview: [3H]MK-801 binding assay (rat cortex synaptic plasma membranes)
setup_conditions: read-out: [3H]MK-801 data IC50, Table I
Where a name gives a salt, the structure may show the parent alone.
measured_attribute: IC50 (nM)

[[record]]
compound = "Cc1ccc(F)cc1C(CCN)c1cc(F)ccc1C"
observed = 203

[[record]]
compound = "CN[C@@H](C)CC(c1cccc(F)c1)c1cccc(F)c1"
observed = 366

[[record]]
compound = "CC(CN)C(c1cccc(Cl)c1)c1cccc(Cl)c1 (stereo not shown)"
observed = 5200

[[record]]
compound = "NCCC1c2cc(F)ccc2CCc2c(F)cccc21 (stereo not shown)"
observed = 371

[[record]]
compound = "Cc1ccccc1OC(CCN)c1ccccc1 (stereo not shown)"
observed = 754

[[record]]
compound = "NCCC1c2ccccc2CCc2ccccc21 [Compound 156, hydrochloride]"
observed = 90

[[record]]
compound = "CCNCCC(c1cccc(F)c1)c1cccc(F)c1"
observed = 453

[[record]]
compound = "C[C@H](N)CC(c1cccc(F)c1)c1cccc(F)c1"
observed = 762

[[record]]
compound = "NCCC(c1ccccc1)c1ccccc1"
observed = 2100

[[record]]
compound = "NCCC1c2ccccc2CCc2ccc(F)cc21 (stereo not shown)"
observed = 53

[[record]]
compound = "Cc1ccccc1C(CCN)c1ccccc1C"
observed = 2000

[[record]]
compound = "NCCC(Oc1ccccc1F)c1cccc(F)c1 (stereo not shown)"
observed = 342

[[record]]
compound = "CNCCC(c1cccc(F)c1)c1cccc(F)c1 [Compound 60, hydrochloride]"
observed = 641

[[record]]
compound = "NCCC(c1cccc(F)c1)c1cccc(F)c1"
observed = 252

[[record]]
compound = "NCCC1c2cc(F)ccc2CCc2ccc(F)cc21"
observed = 29

[[record]]
compound = "NCCC1c2ccccc2Sc2ccccc21"
observed = 5010

[[record]]
compound = "N[C@@H]1CCCC1C(c1cccc(F)c1)c1cccc(F)c1 (stereo partly shown)"
observed = 851

[[record]]
compound = "NCCC(Oc1ccccc1)c1cccc(Cl)c1 (stereo not shown)"
observed = 373

[[record]]
compound = "NCC[C@@H](Oc1cccc(F)c1)c1cccc(F)c1"
observed = 1300

[[record]]
compound = "NCCC1c2ccccc2CCc2c(F)cccc21 (stereo not shown)"
observed = 2240

[[record]]
compound = "Fc1cccc(C(c2cccc(F)c2)C2CCCNC2)c1 (stereo not shown)"
observed = 167

[[record]]
compound = "C[C@H](CN)C(c1cccc(F)c1)c1cccc(F)c1"
observed = 2700


###

Ki: recorded values
tested_on: serotonin transporter site (Rattus norvegicus)
Construct: tissue NovaScreen (performed the assay); host or cells: rat forebrain membranes
assay_overview: Serotonin reuptake inhibition assay ([3H]citalopram binding, rat forebrain membranes)
setup_conditions: Table I; read-out: 5-HT Uptake Ki
measured_attribute: Ki (nM)

[[record]]
molecule = "C[C@H](CN)C(c1cccc(F)c1)c1cccc(F)c1"
measured_attribute = "Ki"
observed = 2100

[[record]]
molecule = "NCCC(Oc1ccccc1)c1cccc(F)c1 (stereo not drawn)"
measured_attribute = "Ki"
observed = 131

[[record]]
molecule = "NCCC(Oc1ccccc1F)c1cccc(F)c1 (stereo not drawn)"
measured_attribute = "Ki"
observed = 62

